src = ChEMBL document CHEMBL5154740

measured on: UniProt P05771
Sequence (P05771 2-671 limits assumed): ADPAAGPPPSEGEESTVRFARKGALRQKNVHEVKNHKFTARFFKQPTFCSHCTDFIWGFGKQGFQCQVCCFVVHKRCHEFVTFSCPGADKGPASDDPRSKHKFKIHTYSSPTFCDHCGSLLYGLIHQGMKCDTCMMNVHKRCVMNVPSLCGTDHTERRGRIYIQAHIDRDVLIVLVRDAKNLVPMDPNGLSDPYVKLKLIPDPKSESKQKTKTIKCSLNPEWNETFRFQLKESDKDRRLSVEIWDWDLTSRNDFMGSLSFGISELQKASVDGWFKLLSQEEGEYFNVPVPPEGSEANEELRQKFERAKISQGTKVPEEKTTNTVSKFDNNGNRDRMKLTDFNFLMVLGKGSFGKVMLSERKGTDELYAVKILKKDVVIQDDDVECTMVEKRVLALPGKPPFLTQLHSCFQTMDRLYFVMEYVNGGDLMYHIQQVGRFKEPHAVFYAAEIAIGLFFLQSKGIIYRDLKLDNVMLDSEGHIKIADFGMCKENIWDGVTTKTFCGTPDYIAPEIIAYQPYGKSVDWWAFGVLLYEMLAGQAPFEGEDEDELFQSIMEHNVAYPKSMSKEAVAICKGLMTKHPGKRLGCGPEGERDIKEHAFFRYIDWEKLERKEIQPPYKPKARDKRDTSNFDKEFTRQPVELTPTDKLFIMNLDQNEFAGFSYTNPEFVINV
test details: Inhibition of PKCbeta1 (unknown origin) at 50 nM by Z'LYTE screening method relative to control
recorded metric: inhibition

Some entries whose results are on file:
Entry O=c1c2ccccc2[se]n1-c1nc(N[C@@H]2C[C@H]3CC[C@@H]2C3)c2nc[nH]c2n1 — recorded inhibition = 0%

inhibition reading for O=C1c2ccccc2CN1c1nc(NC2CCCCC2)c2nc[nH]c2n1 : 5%

CCCNc1nc(-n2[se]c3ccccc3c2=O)nc2[nH]cnc12 has a reported inhibition of 2%

For this molecule ( O=c1c2ccccc2[se]n1-c1nc(Nc2ccccc2)c2nc[nH]c2n1 ), measured inhibition is 6%

Per the records, this molecule ( O=c1c2ccccc2sn1-c1nc(NC2CCCC2)c2nc[nH]c2n1 ) has inhibition equal to 40%

Others:
Documented inhibition of O=c1c2ccccc2sn1-c1nc(NC2CCSC2)c2nc[nH]c2n1 (centres undefined) : 85%

Kindly note the recorded inhibition for C[C@@H]1[C@H]2C[C@@H](C[C@H]1Nc1nc(-n3[se]c4ccccc4c3=O)nc3[nH]cnc13)C2(C)C , which is 5%

###

measured on: Protein kinase C alpha type (Homo sapiens)
test details: Inhibition of PKCalpha (unknown origin) at 50 nM by Z'LYTE screening method relative to control
The reader will find reported inhibition values listed item by item below.
Mention the unit after the number when you answer.

Form: molecule = O=c1c2ccccc2sn1-c1nc(NC2CCCC2)c2nc[nH]c2n1 ; inhibition = 65%

inhibition in this record for O=c1c2ccccc2sn1-c1nc(NC2CCSC2)c2nc[nH]c2n1 (centres undefined) : 92%

// recorded inhibition for O=c1c2ccccc2[se]n1-c1nc(N[C@@H]2C[C@H]3CC[C@@H]2C3)c2nc[nH]c2n1 : 8%

Measured inhibition of O=C1c2ccccc2CN1c1nc(NC2CCCCC2)c2nc[nH]c2n1 : 14%

In plain terms, O=c1c2ccccc2[se]n1-c1nc(NC2CCCCC2)c2nc[nH]c2n1 has a documented inhibition of 68%

Next, consider the following molecule.
For record C[C@@H]1[C@H]2C[C@@H](C[C@H]1Nc1nc(-n3[se]c4ccccc4c3=O)nc3[nH]cnc13)C2(C)C the listed inhibition is 10%

###

Reported values of inhibition for individual entries
measured on: Serine/threonine-protein kinase PAK 1 (Homo sapiens)
test details: Inhibition of PAK1 (unknown origin) at 50 nM by Z'LYTE screening method relative to control
Field: value (include unit after the number)

Item: CCN(CC)CCCC(C)Nc1nc(-n2[se]c3ccccc3c2=O)nc2[nH]cnc12 (centres undefined) | inhibition: 14%

The recorded inhibition for entry O=C1c2ccccc2CN1c1nc(NC2CCCC2)c2nc[nH]c2n1 equals 0%

For record CCCNc1nc(-n2[se]c3ccccc3c2=O)nc2[nH]cnc12 the listed inhibition is 1%

So for O=c1c2ccccc2[se]n1-c1nc(NC2CCCCC2)c2nc[nH]c2n1 , the logged inhibition turned out to be 0%

Entry O=c1c2ccccc2[se]n1-c1nc(N[C@H]2CCOC2)c2nc[nH]c2n1 ; inhibition = 0%

Next:
Memo: O=c1c2ccccc2[se]n1-c1nc(N[C@H]2CC[Se]C2)c2nc[nH]c2n1 , reported inhibition: 0%

Sample O=C1c2ccccc2CN1c1nc(NC2CCCCC2)c2nc[nH]c2n1 ; inhibition observed: 0%

Reported inhibition ( C[C@@H]1[C@H]2C[C@@H](C[C@H]1Nc1nc(-n3[se]c4ccccc4c3=O)nc3[nH]cnc13)C2(C)C ) = 1%

What the record says about O=c1c2ccccc2[se]n1-c1nc(N[C@@H]2C[C@H]3CC[C@@H]2C3)c2nc[nH]c2n1 : inhibition is 1%

###

measured on: Serine/threonine-protein kinase D3 (Homo sapiens) (UniProt O94806)
Sequence (O94806 whole entry): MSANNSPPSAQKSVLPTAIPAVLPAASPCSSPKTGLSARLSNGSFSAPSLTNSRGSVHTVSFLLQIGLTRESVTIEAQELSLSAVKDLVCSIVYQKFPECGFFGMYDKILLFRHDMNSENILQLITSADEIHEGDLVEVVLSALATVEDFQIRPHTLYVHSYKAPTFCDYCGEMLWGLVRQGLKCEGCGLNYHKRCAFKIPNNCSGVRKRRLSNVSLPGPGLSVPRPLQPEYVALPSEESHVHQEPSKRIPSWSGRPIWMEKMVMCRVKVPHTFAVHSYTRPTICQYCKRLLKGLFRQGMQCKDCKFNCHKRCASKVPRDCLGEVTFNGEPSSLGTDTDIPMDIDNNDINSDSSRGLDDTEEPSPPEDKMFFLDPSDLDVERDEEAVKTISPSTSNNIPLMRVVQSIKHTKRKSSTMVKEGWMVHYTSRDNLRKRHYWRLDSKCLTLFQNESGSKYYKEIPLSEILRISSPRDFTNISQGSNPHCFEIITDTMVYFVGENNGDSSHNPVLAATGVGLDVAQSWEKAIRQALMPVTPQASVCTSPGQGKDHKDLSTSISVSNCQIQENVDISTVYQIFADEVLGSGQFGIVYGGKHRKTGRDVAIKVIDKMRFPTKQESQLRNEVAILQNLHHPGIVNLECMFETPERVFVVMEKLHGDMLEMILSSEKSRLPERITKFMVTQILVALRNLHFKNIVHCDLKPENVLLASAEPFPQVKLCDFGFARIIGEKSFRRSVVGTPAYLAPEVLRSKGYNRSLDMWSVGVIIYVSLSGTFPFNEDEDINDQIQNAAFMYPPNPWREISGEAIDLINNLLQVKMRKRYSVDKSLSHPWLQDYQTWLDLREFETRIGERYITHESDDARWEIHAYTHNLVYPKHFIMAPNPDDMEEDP
test details: Inhibition of PKCnu (unknown origin) at 50 nM by Z'LYTE screening method relative to control
Each item that follows carries a reported inhibition.
Answer in %, number only, no unit symbol.

The recorded inhibition for entry C[C@@H]1[C@H]2C[C@@H](C[C@H]1Nc1nc(-n3[se]c4ccccc4c3=O)nc3[nH]cnc13)C2(C)C equals 1

The reported value for O=c1c2ccccc2[se]n1-c1nc(N[C@H]2CC[Se]C2)c2nc[nH]c2n1 in terms of inhibition is 6

inhibition measured on O=c1c2ccccc2[se]n1-c1nc(Nc2ccccc2)c2nc[nH]c2n1 = 0

Briefly, inhibition measured for O=c1c2ccccc2[se]n1-c1nc(N[C@H]2CCOC2)c2nc[nH]c2n1 : 3

Input CCN(CC)CCCC(C)Nc1nc(N2Cc3ccccc3C2=O)nc2[nH]cnc12 (configuration not stated) . Output inhibition: 2

---
The compound listed as O=c1c2ccccc2[se]n1-c1nc(NC2CCCCC2)c2nc[nH]c2n1 has a reported inhibition of 0

Sample O=C1c2ccccc2CN1c1nc(N[C@H]2CC[Se]C2)c2nc[nH]c2n1 ; inhibition observed: 3

Given item CCCNc1nc(-n2[se]c3ccccc3c2=O)nc2[nH]cnc12 , the value recorded as its inhibition is 0

###

measured on: Tyrosine-protein kinase ABL1 (Homo sapiens) (UniProt P00519)
Sequence (P00519 whole entry): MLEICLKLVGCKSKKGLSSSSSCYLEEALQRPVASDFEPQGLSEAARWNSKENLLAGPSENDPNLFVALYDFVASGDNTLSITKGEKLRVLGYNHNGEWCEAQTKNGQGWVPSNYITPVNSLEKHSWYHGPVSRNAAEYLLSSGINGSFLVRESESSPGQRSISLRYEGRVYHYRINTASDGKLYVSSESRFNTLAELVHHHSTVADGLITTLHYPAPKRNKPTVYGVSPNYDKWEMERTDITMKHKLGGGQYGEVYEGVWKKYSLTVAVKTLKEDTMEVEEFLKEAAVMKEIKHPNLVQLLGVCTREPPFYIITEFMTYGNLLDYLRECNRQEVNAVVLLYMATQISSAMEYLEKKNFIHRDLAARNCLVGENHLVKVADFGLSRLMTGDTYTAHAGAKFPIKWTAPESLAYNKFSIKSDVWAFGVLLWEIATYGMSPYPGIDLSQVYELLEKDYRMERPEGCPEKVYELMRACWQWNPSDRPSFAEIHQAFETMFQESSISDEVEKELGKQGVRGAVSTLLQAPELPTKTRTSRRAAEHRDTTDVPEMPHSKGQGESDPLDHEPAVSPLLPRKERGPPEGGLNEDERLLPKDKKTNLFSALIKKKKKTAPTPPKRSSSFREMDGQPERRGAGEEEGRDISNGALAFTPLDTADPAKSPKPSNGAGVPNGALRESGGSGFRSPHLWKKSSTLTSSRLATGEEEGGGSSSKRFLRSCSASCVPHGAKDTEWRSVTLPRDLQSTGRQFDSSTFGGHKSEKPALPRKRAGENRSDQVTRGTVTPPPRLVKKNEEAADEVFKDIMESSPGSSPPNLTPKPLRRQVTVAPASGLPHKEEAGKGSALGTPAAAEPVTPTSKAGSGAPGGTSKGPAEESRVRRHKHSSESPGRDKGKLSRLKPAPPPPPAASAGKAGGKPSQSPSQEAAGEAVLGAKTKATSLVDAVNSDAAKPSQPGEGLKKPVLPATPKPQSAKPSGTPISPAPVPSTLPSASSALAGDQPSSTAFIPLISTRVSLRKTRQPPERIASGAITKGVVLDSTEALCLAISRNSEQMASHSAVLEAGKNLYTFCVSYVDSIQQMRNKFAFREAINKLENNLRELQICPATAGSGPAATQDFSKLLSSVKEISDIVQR
test details: Inhibition of ABL1 (unknown origin) at 50 nM by Z'LYTE screening method relative to control
inhibition overview
Numeric only. Scale: %

Please review the entries below; each comes with its answer.
The value of inhibition measured for the compound O=c1c2ccccc2[se]n1-c1nc(N[C@@H]2C[C@H]3CC[C@@H]2C3)c2nc[nH]c2n1 turned out to be 2

get_value(item= O=C1c2ccccc2CN1c1nc(NC2CCCC2)c2nc[nH]c2n1 , readout=inhibition) returns 1

Looking up O=c1c2ccccc2[se]n1-c1nc(NC2CCCCC2)c2nc[nH]c2n1 , I see its inhibition listed as 1

Record O=C1c2ccccc2CN1c1nc(N[C@H]2CC[Se]C2)c2nc[nH]c2n1 , field inhibition: 0

What the record says about O=C1c2ccccc2CN1c1nc(NC2CCCCC2)c2nc[nH]c2n1 : inhibition is 0

More entries:
Looking up CCN(CC)CCCC(C)Nc1nc(-n2[se]c3ccccc3c2=O)nc2[nH]cnc12 (configuration not stated) , I see its inhibition listed as 11

compound CCN(CC)CCCC(C)Nc1nc(N2Cc3ccccc3C2=O)nc2[nH]cnc12 (configuration not stated) , inhibition observed: 1

###

measured on: ALK tyrosine kinase receptor (Homo sapiens)
test details: Inhibition of ALK (unknown origin) at 50 nM by Z'LYTE screening method relative to control
recorded metric: inhibition (%)
Unit % implied. Number only.

Below, 2 compounds whose answers are already recorded.
Entry under test: O=c1c2ccccc2[se]n1-c1nc(N[C@@H]2C[C@H]3CC[C@@H]2C3)c2nc[nH]c2n1 . Its inhibition was 0

Lab note: O=C1c2ccccc2CN1c1nc(NC2CCCCC2)c2nc[nH]c2n1 gave inhibition of 1

New cases:
Form field inhibition, entry O=c1c2ccccc2[se]n1-c1nc(Nc2ccccc2)c2nc[nH]c2n1 : 1

Entry CCCNc1nc(-n2[se]c3ccccc3c2=O)nc2[nH]cnc12 — recorded inhibition = 1

C[C@@H]1[C@H]2C[C@@H](C[C@H]1Nc1nc(-n3[se]c4ccccc4c3=O)nc3[nH]cnc13)C2(C)C has a reported inhibition of 1

Entry O=c1c2ccccc2[se]n1-c1nc(NC2CCCCC2)c2nc[nH]c2n1 , inhibition reported as 1

The compound listed as O=C1c2ccccc2CN1c1nc(NC2CCCC2)c2nc[nH]c2n1 shows inhibition equal to 2

###

measured on: Aurora kinase A (Homo sapiens) (UniProt O14965)
Sequence (O14965 whole entry): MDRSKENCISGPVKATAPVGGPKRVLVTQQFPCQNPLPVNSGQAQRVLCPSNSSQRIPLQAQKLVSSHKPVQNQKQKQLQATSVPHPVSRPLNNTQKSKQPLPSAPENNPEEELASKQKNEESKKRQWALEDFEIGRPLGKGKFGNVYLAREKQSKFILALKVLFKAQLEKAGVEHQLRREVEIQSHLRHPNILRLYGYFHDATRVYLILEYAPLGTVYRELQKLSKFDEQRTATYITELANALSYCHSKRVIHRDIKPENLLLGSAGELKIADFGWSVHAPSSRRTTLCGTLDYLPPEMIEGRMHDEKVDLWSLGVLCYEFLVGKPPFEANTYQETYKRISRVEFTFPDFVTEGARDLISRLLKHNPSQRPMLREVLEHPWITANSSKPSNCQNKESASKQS
test details: Inhibition of AURA (unknown origin) at 50 nM by Z'LYTE screening method relative to control
recorded metric: inhibition (%)
Write the value in % as a bare number.

Observe how each entry below is paired with its result.
Tested system Aurora kinase A (Homo sapiens) (UniProt O14965); inhibition recorded for O=C1c2ccccc2CN1c1nc(NC2CCCCC2)c2nc[nH]c2n1 was 4

# lookup: O=c1c2ccccc2[se]n1-c1nc(N[C@H]2CC[Se]C2)c2nc[nH]c2n1 on Aurora kinase A (Homo sapiens) (UniProt O14965), inhibition = 87

Summary: O=c1c2ccccc2[se]n1-c1nc(NC2CCCCC2)c2nc[nH]c2n1 , Aurora kinase A (Homo sapiens) (UniProt O14965), inhibition = 84

O=c1c2ccccc2[se]n1-c1nc(N[C@H]2CCOC2)c2nc[nH]c2n1 tested on Aurora kinase A (Homo sapiens) (UniProt O14965) gave inhibition: 71

Further cases:
Observed inhibition, Aurora kinase A (Homo sapiens) (UniProt O14965), O=c1c2ccccc2sn1-c1nc(NC2CCCC2)c2nc[nH]c2n1 : 58

Here O=c1c2ccccc2sn1-c1nc(NC2CCSC2)c2nc[nH]c2n1 (centres undefined) was tested on Aurora kinase A (Homo sapiens) (UniProt O14965), and its inhibition came to 69

Bench note, Aurora kinase A (Homo sapiens) (UniProt O14965): O=c1c2ccccc2[se]n1-c1nc(Nc2ccccc2)c2nc[nH]c2n1 , inhibition reads 6

Item CCN(CC)CCCC(C)Nc1nc(N2Cc3ccccc3C2=O)nc2[nH]cnc12 (centres undefined) ; assay system Aurora kinase A (Homo sapiens) (UniProt O14965); inhibition reported as 3

GET /values?item= O=C1c2ccccc2CN1c1nc(NC2CCCC2)c2nc[nH]c2n1 &system= Aurora kinase A (Homo sapiens) (UniProt O14965) returns inhibition: 1

Recorded inhibition for O=C1c2ccccc2CN1c1nc(N[C@H]2CC[Se]C2)c2nc[nH]c2n1 on Aurora kinase A (Homo sapiens) (UniProt O14965) was 9

Fill in: Aurora kinase A (Homo sapiens) (UniProt O14965) inhibition for C[C@@H]1[C@H]2C[C@@H](C[C@H]1Nc1nc(-n3[se]c4ccccc4c3=O)nc3[nH]cnc13)C2(C)C = 3

Value (inhibition, Aurora kinase A (Homo sapiens) (UniProt O14965)) for record O=c1c2ccccc2[se]n1-c1nc(N[C@@H]2C[C@H]3CC[C@@H]2C3)c2nc[nH]c2n1 = 4

Considering CCN(CC)CCCC(C)Nc1nc(-n2[se]c3ccccc3c2=O)nc2[nH]cnc12 (centres undefined) , its inhibition with Aurora kinase A (Homo sapiens) (UniProt O14965) was recorded as 9

// inhibition (Aurora kinase A (Homo sapiens) (UniProt O14965)) for CCCNc1nc(-n2[se]c3ccccc3c2=O)nc2[nH]cnc12 = 4
